protocol_summary: NCI Yeast Anticancer Drug Screen. Data for the bub3 strain (AID 167)
assay_context: S. cerevisiae bub3 mutant strain, hits give high values; at 50.0 µM unless noted
Compounds without any hit were thinned out: in the full panel of roughly 79,000, 15% have a hit.
Lab note: compare growth inhibition against -10%. Equal or greater, write yes (1). Smaller, write no (0).

c1cncc(C2c3[nH]c4ccccc4c3CCN2CCCN2CCCCC2)c1 (stereo not given) = yes (1)

Now consider the entry below.
query: Textbook exercise: given the entry C#CCN(N=O)C(=O)NCCCCC(NC(C)=O)C(=O)NCc1ccccc1 (stereo not given) , state whether its growth inhibition is greater than or equal to -10%.
result: no (0)
